Sourced from the supplement of paper PMC11208160

Assay: recombinant UMI read abundance after kanamycin selection (control-corrected) (log10(CPM+1)); higher = more efficient recombination; extreme values may be limits of the assay; sequences stand for … in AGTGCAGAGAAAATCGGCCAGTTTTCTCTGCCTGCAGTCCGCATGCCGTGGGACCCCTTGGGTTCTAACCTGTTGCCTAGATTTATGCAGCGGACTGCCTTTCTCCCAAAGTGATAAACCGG…AGGTTGGTTTCACT; site = the 11-nt donor
Cut-off 0.009 on recombinant UMI read abundance (log10), inclusive. At or above means label 1; below means label 0.

// known answers, use as guide
{"sequence string": "TCATCCTCATGGACCGGTTTTCCCGGTAATCCGTATTTGCA (site TCATGCTCTTG)", "class": "label 0"}
{"sequence string": "ATATCTGCATGGACCGGTTTTCCCGGTAATCCGTATTTGGC (site ATATCTGCTGC)", "class": "label 1"}
{"sequence string": "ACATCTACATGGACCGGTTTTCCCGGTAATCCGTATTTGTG (site AAATCTACTCA)", "class": "label 0"}

Prompt: Dear colleague, could you confirm whether ACCTAGACATGGACCGGTTTTCCCGGTAATCCGTATTTGTG (site ACCTAGACTCC) has recombinant UMI read abundance (log10) at or above 0.009?
Response: label 1

###

Assay: recombinant UMI read abundance after kanamycin selection (control-corrected) (log10(CPM+1)); higher = more efficient recombination; extreme values may be limits of the assay; sequences stand for … in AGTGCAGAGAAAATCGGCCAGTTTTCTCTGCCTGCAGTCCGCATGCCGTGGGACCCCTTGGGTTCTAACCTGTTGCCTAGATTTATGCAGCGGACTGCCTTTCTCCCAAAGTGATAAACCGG…AGGTTGGTTTCACT; site = the 11-nt donor
measurement type: recombinant UMI read abundance (log10)
No unit in the answer, please; the number alone is enough.

{"sequence string": "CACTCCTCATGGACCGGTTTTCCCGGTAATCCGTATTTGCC (site CACACCTCTGG)", "recombinant UMI read abundance (log10)": 1.79}
{"sequence string": "CAGTTTACATGGACCGGTTTTCCCGGTAATCCGTATTTGCT (site CTGTTTACTAG)", "recombinant UMI read abundance (log10)": 0.662}
{"sequence string": "GCCTAAACATGGACCGGTTTTCCCGGTAATCCGTATTTGGT (site GCCTAAACTAC)", "recombinant UMI read abundance (log10)": 1.07}
{"sequence string": "ACACGAACATGGACCGGTTTTCCCGGTAATCCGTATTTGAC (site ACACGAACTGG)", "recombinant UMI read abundance (log10)": 1.33}
{"sequence string": "ATCCTTGCATGGACCGGTTTTCCCGGTAATCCGTATTTGAT (site ATCCTTGCTAT)", "recombinant UMI read abundance (log10)": 2.19}

Prompt: Query recombinant UMI read abundance (log10) for AATGTACCATGGACCGGTTTTCCCGGTAATCCGTATTTGCT (site AATGTATCTAG)
Response: 0.926

Prompt: Query recombinant UMI read abundance (log10) for AATAGAACATGGACCGGTTTTCCCGGTAATCCGTATTTGAG (site AGTAGAACTCT)
Response: 0.412

Prompt: Query recombinant UMI read abundance (log10) for AGTTTCCCATGGACCGGTTTTCCCGGTAATCCGTATTTGTG (site AGTTTCCCTCA)
Response: 0.0252

Prompt: Query recombinant UMI read abundance (log10) for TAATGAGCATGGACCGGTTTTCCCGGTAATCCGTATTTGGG (site TAATGATCTCC)
Response: 0

###

Assay: recombinant barcode read abundance after kanamycin selection (control-corrected) (log10(CPM+1)); higher = more efficient recombination; sequences stand for … in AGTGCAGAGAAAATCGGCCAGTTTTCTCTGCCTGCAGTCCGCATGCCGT…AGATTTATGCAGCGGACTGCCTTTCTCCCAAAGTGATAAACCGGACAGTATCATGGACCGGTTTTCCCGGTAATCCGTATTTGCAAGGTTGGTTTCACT; site = the 11-nt target
Cut-off 1 on recombinant barcode read abundance (log10), inclusive. At or above means Yes; below means No.

// known answers, use as guide
{"sequence string": "ACTCGCTCTTGGGTTCTAACCTGTTGCAC (site ACTCGCTCTGT)", "class": "Yes"}
{"sequence string": "TTGAAACCTTGGGTTCTAACCTGTTGCCT (site TTGAAACCTAG)", "class": "Yes"}
{"sequence string": "CTACCAGCTTGGGTTCTAACCTGTTGCCT (site CTACCAACTAG)", "class": "No"}
{"sequence string": "CCAGGTCCTTGGGTTCTAACCTGTTGCGT (site CCAGGTCCTAC)", "class": "Yes"}
{"sequence string": "AGGGGAGCTTGGGTTCTAACCTGTTGCCT (site AGGGAAGCTAG)", "class": "Yes"}
{"sequence string": "GATGTACCTTGGGTTCTAACCTGTTGCCT (site TATGTACCTAG)", "class": "Yes"}
{"sequence string": "ACCGGGACTTGGGTTCTAACCTGTTGCCT (site ACCGGGACTAG)", "class": "Yes"}
{"sequence string": "ACGGATCCTTGGGTTCTAACCTGTTGCAT (site ACGGATCCTAT)", "class": "Yes"}
{"sequence string": "GCATCTCCTTGGGTTCTAACCTGTTGCCT (site CCATCTCCTAG)", "class": "No"}
{"sequence string": "TGAAGCCCTTGGGTTCTAACCTGTTGCTT (site TGAAGCCCTAA)", "class": "No"}

Prompt: Dear colleague, could you confirm whether TATTAGCCTTGGGTTCTAACCTGTTGCCT (site TATTATCCTAG) has recombinant barcode read abundance (log10) at or above 1?
Response: No

Prompt: Dear colleague, could you confirm whether TTACTAGCTTGGGTTCTAACCTGTTGCGT (site TTACTAGCTAC) has recombinant barcode read abundance (log10) at or above 1?
Response: Yes

Prompt: Dear colleague, could you confirm whether AGGGGAGCTTGGGTTCTAACCTGTTGCCT (site AGGGCAGCTAG) has recombinant barcode read abundance (log10) at or above 1?
Response: No

Prompt: Dear colleague, could you confirm whether CGTGAAGCTTGGGTTCTAACCTGTTGCCT (site CGTATAGCTAG) has recombinant barcode read abundance (log10) at or above 1?
Response: No

Prompt: Dear colleague, could you confirm whether TAGCCGACTTGGGTTCTAACCTGTTGCTT (site TAGGCGACTAA) has recombinant barcode read abundance (log10) at or above 1?
Response: No

Prompt: Dear colleague, could you confirm whether ATAAGCCCTTGGGTTCTAACCTGTTGCCT (site AAAAGCCCTAG) has recombinant barcode read abundance (log10) at or above 1?
Response: No

Prompt: Dear colleague, could you confirm whether TCAAAGGCTTGGGTTCTAACCTGTTGCCT (site TCTAAGGCTAG) has recombinant barcode read abundance (log10) at or above 1?
Response: No

Prompt: Dear colleague, could you confirm whether GGACGCCCTTGGGTTCTAACCTGTTGCCT (site GGACGTCCTAG) has recombinant barcode read abundance (log10) at or above 1?
Response: No

Prompt: Dear colleague, could you confirm whether TAGAAGACTTGGGTTCTAACCTGTTGCTA (site TAGAAGACTTA) has recombinant barcode read abundance (log10) at or above 1?
Response: Yes

Prompt: Dear colleague, could you confirm whether ACTAGGCCTTGGGTTCTAACCTGTTGCGG (site ACTATCCCTCC) has recombinant barcode read abundance (log10) at or above 1?
Response: No

Prompt: Dear colleague, could you confirm whether CTTGACACTTGGGTTCTAACCTGTTGCCT (site CTGGACACTAG) has recombinant barcode read abundance (log10) at or above 1?
Response: No

###

Assay: recombinant UMI read abundance after kanamycin selection (control-corrected) (log10(CPM+1)); higher = more efficient recombination; extreme values may be limits of the assay; sequences stand for … in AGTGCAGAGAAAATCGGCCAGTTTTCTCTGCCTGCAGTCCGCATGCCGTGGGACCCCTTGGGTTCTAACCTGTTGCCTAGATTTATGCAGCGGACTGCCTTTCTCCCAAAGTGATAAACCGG…AGGTTGGTTTCACT; site = the 11-nt donor
The following ranges of recombinant UMI read abundance (log10) define the classes used here: lower band: < 0.009; central band: ≥ 0.009 and < 0.7; upper band: ≥ 0.7

// known answers, use as guide
{"sequence string": "AGAAATGCATGGACCGGTTTTCCCGGTAATCCGTATTTGCT (site AGAAAAGCTAG)", "class": "upper band"}
{"sequence string": "CGACGACCATGGACCGGTTTTCCCGGTAATCCGTATTTGAC (site CGACGACCTGT)", "class": "lower band"}

Prompt: Band for the recorded recombinant UMI read abundance (log10) of GGAGAGGCATGGACCGGTTTTCCCGGTAATCCGTATTTGGT (site GGAGCGGCTAC) ?
Response: lower band

Prompt: Band for the recorded recombinant UMI read abundance (log10) of AGGATCCCATGGACCGGTTTTCCCGGTAATCCGTATTTGTG (site AGGTTCCCTCA) ?
Response: central band

Prompt: Band for the recorded recombinant UMI read abundance (log10) of TAGCTGGCATGGACCGGTTTTCCCGGTAATCCGTATTTGAA (site TAGCTGGCTTT) ?
Response: upper band

Prompt: Band for the recorded recombinant UMI read abundance (log10) of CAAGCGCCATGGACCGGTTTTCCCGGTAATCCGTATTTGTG (site CAAGCGCCTCT) ?
Response: central band

Prompt: Band for the recorded recombinant UMI read abundance (log10) of AGTAGCTCATGGACCGGTTTTCCCGGTAATCCGTATTTGGC (site AGTAGCTCTGC) ?
Response: upper band

Prompt: Band for the recorded recombinant UMI read abundance (log10) of CTGGTTTCATGGACCGGTTTTCCCGGTAATCCGTATTTGAC (site CTGGTTTCTGT) ?
Response: upper band

Prompt: Band for the recorded recombinant UMI read abundance (log10) of AAGTCAACATGGACCGGTTTTCCCGGTAATCCGTATTTGTG (site AAGTCAACTCA) ?
Response: central band

Prompt: Band for the recorded recombinant UMI read abundance (log10) of TAATGAGCATGGACCGGTTTTCCCGGTAATCCGTATTTGAG (site TAATGAGCTCG) ?
Response: central band

Prompt: Band for the recorded recombinant UMI read abundance (log10) of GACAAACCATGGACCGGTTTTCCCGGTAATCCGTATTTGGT (site GACAAACCTAG) ?
Response: lower band

Prompt: Band for the recorded recombinant UMI read abundance (log10) of CACCGTACATGGACCGGTTTTCCCGGTAATCCGTATTTGCG (site CACCGTACTCG) ?
Response: upper band

Prompt: Band for the recorded recombinant UMI read abundance (log10) of ACACGAACATGGACCGGTTTTCCCGGTAATCCGTATTTGAC (site ACACGAACTGC) ?
Response: lower band

Prompt: Band for the recorded recombinant UMI read abundance (log10) of CCCGGCCCATGGACCGGTTTTCCCGGTAATCCGTATTTGCA (site CCCGGCCCTTG) ?
Response: lower band
